experimental system: T1, human Nectin-4 protein (human, UniProt Q96NY8 32-349)
T1 construct: Purified protein used for coating in ELISA and as analyte in Octet; also called human Nectin-4 antigen
T1 sequence (looked up): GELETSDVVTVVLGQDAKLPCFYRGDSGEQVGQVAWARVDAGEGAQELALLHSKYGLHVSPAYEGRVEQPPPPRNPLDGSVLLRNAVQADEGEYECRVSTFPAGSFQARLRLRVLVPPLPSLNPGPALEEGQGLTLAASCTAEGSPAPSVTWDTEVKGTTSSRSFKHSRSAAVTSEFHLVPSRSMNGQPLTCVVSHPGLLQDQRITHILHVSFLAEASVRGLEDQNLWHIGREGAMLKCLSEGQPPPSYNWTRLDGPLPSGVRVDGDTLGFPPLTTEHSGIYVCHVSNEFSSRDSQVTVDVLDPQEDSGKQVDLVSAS
procedure text: BLI (Octet Fortebio), antibody on ProA sensor, Nectin-4 as analyte, 1:1 global fit
Procedure: The dynamic affinity of anti-human Nectin-4 humanized monoclonal antibodies was detected using Octet Fortebio®. […] After the completion of the experiment, the results were analyzed by using Data Analysis 11.0 software at 1:1 mode to perform global fitting, thereby obtaining the affinity constant of antibody to antigen.
Catalogue of pKd values
// returns pKd (minus log10 of molar concentration), number only

Known results for binders:
binder | pKd
anti-human Nectin-4 humanized monoclonal antibody 31HZ (antibody, human IgG1, kappa, V domains shown, Human IgG1 heavy chain constant region, human kappa light chain constant region; expressed in CHO-E cells) VH: QVQLVQSGAEVKKPGSSVKVSCKASGYTFTDYWMNWVRLAPGQGLEWIGMIHPSDSETRLNQKFQGRVTLTVDKSTSTAYMELSSLRSEDTAVYYCARWDFRIYYAMDYWGQGTLVTVSS VL: DVVITQSPDSLAVSLGERATINCKSSQSLLNTNSQKNYLAWYQQKPGQSPKLLVYFASTRESGVPDRFSGSGSGTDFTLTISSLQAEDVAVYFCQQHYSTPLTFGGGTKVEIKR | 7.65
Enfortumab (antibody, V domains shown) VH: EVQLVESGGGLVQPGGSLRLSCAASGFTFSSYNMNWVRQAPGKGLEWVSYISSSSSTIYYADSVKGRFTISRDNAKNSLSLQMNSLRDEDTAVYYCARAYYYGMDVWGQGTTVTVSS VL: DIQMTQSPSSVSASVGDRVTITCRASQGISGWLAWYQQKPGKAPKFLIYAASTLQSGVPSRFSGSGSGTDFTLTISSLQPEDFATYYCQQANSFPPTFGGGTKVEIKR | 7.55

Shift focus to the following entry.
-- ask Fill blank: measured pKd of the binder anti-human Nectin-4 humanized monoclonal antibody 56HZ (antibody, human IgG1, kappa, V domains shown, Human IgG1 heavy chain constant region, human kappa light chain constant region; expressed in CHO-E cells) VH: QVQLQESGPGLVKPSQTLSLTCTVSGYFNSITSDYDWHWIRHHPGKGLEWMGYISFSGRTYYNPSLKSRVTISHDTSKNQFSLKLSSVTAADTAVYYCARGNYDGFDYWGQGTLVTVSS VL: DIVLTQSPATLSLSPGERATLSCRASQNIGTSIHWYQHKPGQSPRLLIKFASESISGIPARFSGSGSGTDFTLTISSLEPEDFAVYYCQQSKSWPTYTFGGGTKVEIKR is ____.
-- reply 7.71
